Every entry's value here was drawn from the supplement of paper PMC5908809.

Tested on: DERL-7 (IL-2 2.5 ng/mL);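 note: normalised to DMSO-only wells as negative and benzethonium chloride as positive control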
test details: percent inhibition of viability; higher = more inhibition
experimental conditions: 72 h; 1 nM
readout: percent inhibition of viability (%)

INSERT INTO assay_data (molecule, unit_of_measure, observed_result) VALUES
  ('COc1nc(N)nc2c1ncn2[C@@H]1O[C@H](CO)[C@@H](O)[C@@H]1O [Nelarabine] (max concentration tested 10000 nM)', '%', 1.44),
  ('Cc1ccc(C(=O)Nc2ccc(CN3CCN(C)CC3)c(C(F)(F)F)c2)cc1C#Cc1cnc2cccnn12 [Ponatinib] (max concentration tested 1000 nM)', '%', 2.27),
  ('CC1(COc2ccc3c(c2)ncn3-c2ccc3cccc(N4CCC(N)CC4)c3n2)COC1 [Crenolanib] (max concentration tested 10000 nM)', '%', 9.4),
  ('NC(=S)N/N=C/c1ncccc1N [Triapine] (max concentration tested 10000 nM)', '%', -1.06),
  ('Cc1csc(-c2nnc(Nc3ccc(Oc4ncccc4-c4ccnc(N)n4)cc3)c3ccccc23)c1 [AMG-900] (max concentration tested 1000 nM)', '%', -1.85),
  ('N#CCNC(=O)c1ccc(-c2ccnc(Nc3ccc(N4CCOCC4)cc3)n2)cc1 [Momelotinib] (max concentration tested 10000 nM)', '%', 3.73),
  ('Cc1c(N)nc([C@H](CC(N)=O)NC[C@H](N)C(N)=O)nc1C(=O)N[C@H](C(=O)N[C@H](C)[C@@H](O)[C@H](C)C(=O)N[C@H](C(=O)NCCc1nc(-c2nc(C(=O)NCCC[S+](C)C)cs2)cs1)[C@@H](C)O)[C@@H](OC1OC(CO)C(O)C(O)C1OC1OC(CO)C(O)C(OC(N)=O)C1O)c1cnc[nH]1 (some centres not stated) [Bleomycin] (max concentration tested 10000 nM)', '%', 0.04),
  ('O=C(CCCCCCC(=O)Nc1ccc([C@H]2O[C@@H](CSc3nc(-c4ccccc4)c(-c4ccccc4)o3)C[C@@H](c3ccc(CO)cc3)O2)cc1)NO [Tubacin] (max concentration tested 10000 nM)', '%', -2.36),
  ('O=C1NC(=O)[C@@H](c2cn3c4c(cccc24)CCC3)[C@@H]1c1c[nH]c2ccccc12 [Tivantinib] (max concentration tested 1000 nM)', '%', 4.31),
  ('Cn1ncnc1[C@H]1c2n[nH]c(=O)c3cc(F)cc(c23)N[C@@H]1c1ccc(F)cc1 [Talazoparib] (max concentration tested 1000 nM)', '%', 7.22),
  ('CC(C)n1cnc2c(NCCc3ccc(O)cc3)nc(-c3csc4ccccc34)nc21 [StemRegenin 1] (max concentration tested 10000 nM)', '%', 2.23),
  ('NC1(c2ccc(-c3nc4ccn5c(=O)[nH]nc5c4cc3-c3ccccc3)cc2)CCC1 [MK-2206] (max concentration tested 1000 nM)', '%', 2.78),
  ('COc1cc([C@@H]2c3cc4c(cc3[C@@H](O[C@@H]3O[C@@H]5CO[C@@H](C)O[C@H]5[C@H](O)[C@H]3O)[C@H]3COC(=O)[C@H]23)OCO4)cc(OC)c1O [Etoposide] (max concentration tested 10000 nM)', '%', -3.7),
  ('CCc1cnn2c(NCc3ccc[n+]([O-])c3)cc(N3CCCC[C@H]3CCO)nc12 [Dinaciclib] (max concentration tested 1000 nM)', '%', 0.2),
  ('Cn1c(=O)n(-c2ccc(C(C)(C)C#N)cc2)c2c3cc(-c4cnc5ccccc5c4)ccc3ncc21 [Dactolisib] (max concentration tested 1000 nM)', '%', 16),
  ('CC(C)NC[C@@H](C(=O)N1CCN(c2ncnc3c2[C@H](C)C[C@H]3O)CC1)c1ccc(Cl)cc1 [GDC-0068] (max concentration tested 10000 nM)', '%', -2.5),
  ('CN(C)CCN1C(=O)c2cccc3cc(N)cc(c23)C1=O [Amonafide] (max concentration tested 10000 nM)', '%', -0.77),
  ('N#CC1(c2ccc(NC(=O)c3cccnc3NCc3ccncc3)cc2)CCCC1 [Apatinib] (max concentration tested 10000 nM)', '%', -0.33),
  ('CC1(C)CCC(c2ccc(Cl)cc2)=C(CN2CCN(c3ccc(C(=O)NS(=O)(=O)c4ccc(N[C@H](CCN5CCOCC5)CSc5ccccc5)c(S(=O)(=O)C(F)(F)F)c4)cc3)CC2)C1 [Navitoclax] (max concentration tested 10000 nM)', '%', 2),
  ('COc1cc(CCc2cc(NC(=O)c3ccc(N4CC(C)NC(C)C4)cc3)n[nH]2)cc(OC)c1 (configuration not stated) [AZD4547] (max concentration tested 1000 nM)', '%', 12),
  ('Nc1nc(OCc2cc(Br)cs2)c2[nH]cnc2n1 [Lomeguatrib] (max concentration tested 10000 nM)', '%', 4.42),
  ('C=CCN(/C=C1/C(=O)O[C@H](COC)[C@@]2(C)C1=C(O)C(=O)C1=C2[C@H](OC(C)=O)C[C@]2(C)C(=O)CC[C@@H]12)CC=C [Sonolisib] (max concentration tested 10000 nM)', '%', 4.44);
